Experiment: in vivo
Parameters: species or system Swiss albino mice
Conditions: Swiss albino, mouse, iv, 10 pmol peptide, total radioactivity, %ID/g tissue, Lung
observable: tissue uptake at 4 h (%ID/g)
One number for each entry, in %ID/g.

// sample CSCC[C@H](NC(=O)[C@H](Cc1c[nH]c2ccccc12)NC(=O)CNC(=O)[C@H](Cc1ccc(O)cc1)NC(=O)[C@H](C)NC(=O)[C@@H](CCC(=O)O)NC(=O)[C@@H](CCC(=O)O)NC(=O)[C@@H](CCC(=O)O)NC(=O)[C@@H](CCC(=O)O)NC(=O)[C@@H](CCC(=O)O)NC(=O)[C@@H](CCC(=O)O)NC(=O)CN1CCN(CC(=O)O)CCN(CC(=O)O)CCN(CC(=O)O)CC1)C(=O)N[C@@H](CC(=O)O)C(=O)N[C@@H](Cc1ccccc1)C(N)=O [^111In-CP04, metal not drawn] , its tissue uptake at 4 h was 0.06
